Target: human IL-23R (Homo sapiens, UniProt Q5VWK5)
Construct: Nanoluc luciferase (Nluc); secretion signal encoded by the plasmid (not specified); expressed in transfected cells; crude membranes used in the assay
Sequence (Q5VWK5 22-629): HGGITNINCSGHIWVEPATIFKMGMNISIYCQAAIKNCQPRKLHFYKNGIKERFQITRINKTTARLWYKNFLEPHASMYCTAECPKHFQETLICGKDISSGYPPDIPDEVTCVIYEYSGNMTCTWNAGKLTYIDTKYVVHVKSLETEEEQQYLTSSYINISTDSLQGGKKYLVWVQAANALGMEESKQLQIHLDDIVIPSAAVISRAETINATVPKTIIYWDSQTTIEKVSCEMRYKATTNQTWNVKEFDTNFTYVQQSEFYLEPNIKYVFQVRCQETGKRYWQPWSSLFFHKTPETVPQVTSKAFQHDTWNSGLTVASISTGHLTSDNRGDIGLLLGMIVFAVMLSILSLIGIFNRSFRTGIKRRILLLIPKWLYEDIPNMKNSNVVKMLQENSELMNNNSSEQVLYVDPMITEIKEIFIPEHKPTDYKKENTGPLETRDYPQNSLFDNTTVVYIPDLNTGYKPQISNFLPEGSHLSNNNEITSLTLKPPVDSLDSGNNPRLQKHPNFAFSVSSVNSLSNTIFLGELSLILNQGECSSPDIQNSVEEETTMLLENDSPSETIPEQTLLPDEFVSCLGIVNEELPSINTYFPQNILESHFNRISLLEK
Experiment: Binding assay: displacement of fluorophore (TAMRA)-labelled reference compound from human IL-23R (BRET, Nluc-IL23R fusion protein membranes)
Conditions: read-out: % displacement (hIL-23R binding)
*1 amine or outer side, *2 acyl side, *3 side chain or, on linkers, in order; H or OH if unused. Where a SMILES comes first, the peptide text is derived from it. Bridges are numbered along the chain shown (N, C = ends). [ ]: non-standard residue; d: D form. 2Nal = N[C@@H](Cc1ccc2ccccc2c1)C(=O)O; CH2COCH2 = O=C(C[*:1])C[*:2]; 3Amb = NCc1cccc(C(=O)O)c1
Measured Emax, listed per entry for reference.
Write the number in % without appending the unit.

Below: 2 compounds and their reported Emax.
- compound: "CNC(=O)[C@H](Cc1cccnc1)NC(=O)[C@H](CCO)NC(=O)[C@@H]1CCC(=O)NCc2ccc(cc2)CC(=O)N[C@@H](CO)C(=O)N[C@H]2CCC(=O)NCC[C@H](NC(=O)[C@H](CCC(N)=O)NC(=O)[C@H](Cc3c[nH]c4ccccc34)NC2=O)C(=O)N[C@@H](Cc2ccc(OCCN)cc2)C(=O)N[C@@H](Cc2ccc3ccccc3c2)C(=O)N[C@@](C)(CC(C)C)C(=O)N1"
  measured-target: "human IL-23R (Homo sapiens, UniProt Q5VWK5)"
  Emax (%): 94
- compound: "CNC(=O)[C@H](Cc1cccnc1)NC(=O)[C@H](CCN)NC(=O)[C@@H]1CCC(=O)NCc2ccc(cc2)CC(=O)N[C@@H](C)C(=O)N[C@H]2CCC(=O)NCC[C@H](NC(=O)[C@H](CCC(N)=O)NC(=O)[C@H](Cc3c[nH]c4ccccc34)NC2=O)C(=O)N[C@@H](Cc2c[nH]c3ccccc23)CC(=O)N[C@@H](Cc2ccc3ccccc3c2)C(=O)NC(C)(C)C(=O)N1"
  measured-target: "human IL-23R (Homo sapiens, UniProt Q5VWK5)"
  Emax (%): 104

We next turn to a different compound, shown below.
Entry CC(C)C[C@@H]1NC(=O)[C@H](Cc2ccc3ccccc3c2)NC(=O)[C@H](Cc2c[nH]c3ccccc23)NC(=O)[C@@H]2CSCC(=O)CSC[C@H](NC(=O)[C@H](CO)NC(=O)c3cccc(c3)CNC(=O)CC[C@@H](C(=O)N[C@@H](CCCNC(=N)N)C(N)=O)NC1=O)C(=O)N[C@@H](Cc1c[nH]c3ccccc13)C(=O)N[C@@H](CCC(N)=O)C(=O)N2 [Ref 37, reference compound] ([3Amb]SCWQCW[2Nal]LER-NH2; linker 3-6 via CH2COCH2; lactam N-10) needs its Emax filled in; supply it. 103

----------
Assay: Peptide stability in simulated intestinal fluid (SIF)
Type: in vitro ADME
Details: pig, simulated intestinal fluid; SIF, 4 h, pH 6.8, pancreatin, 37° C., 10 μM; read-out: SIF (% remaining 4 h)
result-type: remaining at 4 h, 10 µM (%)
Just the number in %, nothing appended.

Specify reported remaining at 4 h, 10 µM for the molecule shown: CSCC[C@H](NC(=O)[C@@H]1CSCC(=O)CSC[C@H](NC(=O)[C@@H](N)CCC(=O)O)C(=O)N[C@@H](Cc2c[nH]c3ccccc23)C(=O)N[C@@H](CC(C)C)C(=O)N[C@H]2CSCC(=O)CSC[C@H](NC(=O)[C@H](CC(N)=O)NC(=O)[C@H](CCCNC(=N)N)NC(=O)[C@H](Cc3ccc(O)cc3)NC(=O)[C@H](Cc3ccc(O)cc3)NC2=O)C(=O)N[C@@H](CC(N)=O)C(=O)N1)C(N)=O (single isomer, unassigned) [I4 (isomer 3), H-EC(4a)WLC(5a)YYRNC(5a)NC(4a)M-[NH2], reference compound] 0

----------
Tested on: IL-23 mediated STAT3 signalling (DB cells)
Assay: Functional inhibition of IL-23 mediated STAT3 signalling (phospho-STAT3 Tyr705) in DB cells
Format: cell-based, human
Conditions: Table 3-2, EC80 of hIL-23, read-out: hIL-23 (pSTAT3) antagonist IC50
*1 amine or outer side, *2 acyl side, *3 side chain or, on linkers, in order; H or OH if unused. Where a SMILES comes first, the peptide text is derived from it. Bridges are numbered along the chain shown (N, C = ends). [ ]: non-standard residue; d: D form. 2Nal = N[C@@H](Cc1ccc2ccccc2c1)C(=O)O; AEF = NCCOc1ccc(C[C@H](N)C(=O)O)cc1; αMeL = CC(C)C[C@](C)(N)C(=O)O; CH2COCH2 = O=C(C[*:1])C[*:2]; 3Amb = NCc1cccc(C(=O)O)c1
result-type: pIC50
Scale: pIC50 equals -log10([C]), with [C] in mol/L.

Read off the recorded pIC50 for CC(C)C[C@]1(C)NC(=O)[C@H](Cc2ccc3ccccc3c2)NC(=O)[C@H](Cc2ccc(OCCN)cc2)NC(=O)[C@@H]2CSCC(=O)CSC[C@H](NC(=O)[C@H](CO)NC(=O)c3cccc(c3)CNC(=O)CC[C@@H](C(=O)N[C@H](CCCNC(=N)N)C(N)=O)NC1=O)C(=O)N[C@@H](Cc1c[nH]c3ccccc13)C(=O)N[C@@H](CCC(N)=O)C(=O)N2 [Ref 41, reference compound] ([3Amb]SCWQC[AEF][2Nal][αMeL]E[dR]-NH2; linker 3-6 via CH2COCH2; lactam N-10) 7.54

Consider the compound CNC(=O)[C@H](Cc1cccnc1)NC(=O)[C@H](CCN)NC(=O)[C@@H]1CCC(=O)NCc2ccc(cc2)CC(=O)N[C@@H](C)C(=O)N[C@H]2CCC(=O)NCC[C@H](NC(=O)[C@H](CCC(N)=O)NC(=O)[C@H](Cc3c[nH]c4ccccc34)NC2=O)C(=O)N[C@@H](Cc2ccc(OCCN)cc2)C(=O)N[C@@H](Cc2cnc3ccccc3c2)C(=O)NC(C)(C)C(=O)N1 and give its recorded pIC50. 10.03

Indicate the recorded pIC50 value for this compound: CNC(=O)[C@H](Cc1cccnc1)NC(=O)[C@](C)(CO)NC(=O)[C@@H]1CCC(=O)NCc2ccc(cc2)CC(=O)N[C@@H](CO)C(=O)N[C@H]2CCC(=O)NCC[C@H](NC(=O)[C@H](CCC(N)=O)NC(=O)[C@H](Cc3c[nH]c4ccccc34)NC2=O)C(=O)N[C@@H](Cc2ccc(OCCN)cc2)C(=O)N[C@@H](Cc2ccc3ccccc3c2)C(=O)N[C@@](C)(CC(C)C)C(=O)N1 9.29

----------
Biological target: human IL-23R (Homo sapiens, UniProt Q5VWK5)
Construct: Nanoluc luciferase (Nluc); secretion signal encoded by the plasmid (not specified); crude membranes used in the assay
Test: Binding assay: displacement of fluorophore (TAMRA)-labelled reference compound from human IL-23R (BRET, Nluc-IL23R fusion protein membranes)
result-type: pIC50
The meaning of pIC50 here: minus log10 of the concentration in molar units.

- molecule: "CC(C)C[C@]1(C)NC(=O)[C@H](Cc2ccc3ccccc3c2)NC(=O)[C@H](Cc2ccc(OCCN)cc2)NC(=O)[C@@H]2CCNC(=O)CC[C@H](NC(=O)[C@H](CO)NC(=O)Cc3ccc(cc3)CNC(=O)CC[C@@H](C(=O)N[C@@H](CCN)C(=O)NCCCCc3cccnc3)NC1=O)C(=O)N[C@@H](Cc1c[nH]c3ccccc13)C(=O)N[C@@H](CCC(N)=O)C(=O)N2"
  pIC50: 10.43

Specify measured pIC50 for CNC(=O)[C@H](Cc1cccnc1)NC(=O)[C@H](CCN)NC(=O)[C@@H]1CCC(=O)NCc2ccc(cc2)CC(=O)N[C@@H](C)C(=O)N[C@H]2CCC(=O)NCC[C@H](NC(=O)[C@H](CCC(N)=O)NC(=O)[C@H](Cc3c[nH]c4ccccc34)NC2=O)C(=O)N[C@@H](Cc2c[nH]c3c(F)cccc23)C(=O)N[C@@H](Cc2ccc3ccccc3c2)C(=O)NC(C)(C)C(=O)N1 . 10.16

----------
Known remaining at 1 h, 10 µM of a selection of compounds
Test: Peptide stability in simulated intestinal fluid (SIF)
Type: in vitro ADME
Details: pig, simulated intestinal fluid; SIF, 1 h, pH 6.8, pancreatin, 37° C., 10 μM
*1 amine or outer side, *2 acyl side, *3 side chain or, on linkers, in order; H or OH if unused. Where a SMILES comes first, the peptide text is derived from it. Bridges are numbered along the chain shown (N, C = ends). [ ]: non-standard residue; d: D form. The star is where a group is joined. 2Nal = N[C@@H](Cc1ccc2ccccc2c1)C(=O)O; AEF = NCCOc1ccc(C[C@H](N)C(=O)O)cc1; X1 = O=C(Cc1ccc(CN[*:1])cc1)[*:2]; 3Pal = N[C@@H](Cc1cccnc1)C(=O)O; Cit = NC(=O)NCCC[C@H](N)C(=O)O; αMeL = CC(C)C[C@](C)(N)C(=O)O; Pyrrolidide = C1CCN(*)C1; Dab = NCC[C@H](N)C(=O)O; Sar = CNCC(=O)O
Field: numeric (%). Do not append units.

- compound: "CNC(=O)[C@H](Cc1cccnc1)NC(=O)[C@H](CCN)NC(=O)[C@@H]1CCC(=O)NCc2ccc(cc2)CC(=O)N[C@@H](CO)C(=O)N[C@H]2CCC(=O)NCC[C@H](NC(=O)[C@H](CCC(=O)N3CCCC3)NC(=O)[C@H](Cc3c[nH]c4ccccc34)NC2=O)C(=O)N[C@@H](Cc2ccc(OCCN)cc2)C(=O)N[C@@H](Cc2ccc3ccccc3c2)C(=O)N[C@@](C)(CC(C)C)C(=O)N1 [Compound 27] ([X1]SEWE(Pyrrolidide)[Dab][AEF][2Nal][αMeL]E[Dab][3Pal]-NHMe; lactam 3-6, N-10)"
  remaining at 1 h, 10 µM, %: 90
- compound: "CNC(=O)[C@H](Cc1cccnc1)NC(=O)[C@H](CCN)NC(=O)[C@@H]1CCC(=O)NCc2ccc(cc2)CC(=O)N[C@@H](C)C(=O)N[C@H]2CCC(=O)NCC[C@H](NC(=O)[C@H](CCC(N)=O)NC(=O)[C@H](Cc3c[nH]c4ccccc34)NC2=O)C(=O)N[C@@H](Cc2c[nH]c3ncccc23)C(=O)N[C@@H](Cc2ccc3ccccc3c2)C(=O)NC(C)(C)C(=O)N1"
  remaining at 1 h, 10 µM, %: 96
- compound: "CNC(=O)[C@H](Cc1cccnc1)NC(=O)[C@H](CCN)NC(=O)[C@@H]1CCC(=O)NCc2ccc(cc2)CC(=O)N[C@@H](C)C(=O)N[C@H]2CCC(=O)NCC[C@H](NC(=O)[C@H](CCC(N)=O)NC(=O)[C@H](Cc3c[nH]c4ccccc34)NC2=O)C(=O)N[C@@H](Cc2ccc(OCCN)cc2)C(=O)N[C@@H](Cc2cnc3ccccc3c2)C(=O)NC(C)(C)C(=O)N1"
  remaining at 1 h, 10 µM, %: 93
- compound: "CC(C)C[C@]1(C)NC(=O)[C@H](Cc2ccc3ccccc3c2)NC(=O)[C@H](Cc2ccc(OCCN)cc2)NC(=O)[C@@H]2CCNC(=O)CC[C@H](NC(=O)[C@H](CO)NC(=O)Cc3ccc(cc3)CNC(=O)CC[C@@H](C(=O)N[C@@H](CCN)C(=O)N[C@@H](Cc3cccnc3)C(=O)N(C)CC(N)=O)NC1=O)C(=O)N[C@@H](Cc1c[nH]c3ccccc13)C(=O)N[C@@H](CCC(N)=O)C(=O)N2 [Compound 9] ([X1]SEWQ[Dab][AEF][2Nal][αMeL]E[Dab][3Pal][Sar]-NH2; lactam 3-6, N-10)"
  remaining at 1 h, 10 µM, %: 102
- compound: "CNC(=O)[C@H](Cc1cccnc1)NC(=O)[C@H](CCN)NC(=O)[C@@H]1CCC(=O)NCc2ccc(cc2)CC(=O)N[C@@H](C)C(=O)N[C@H]2CCC(=O)NCC[C@H](NC(=O)[C@H](CCC(N)=O)NC(=O)[C@H](Cc3c[nH]c4ccccc34)NC2=O)C(=O)N[C@@H](Cc2cnc3ccccc3c2)C(=O)N[C@@H](Cc2ccc3ccccc3c2)C(=O)NC(C)(C)C(=O)N1"
  remaining at 1 h, 10 µM, %: 92

Please examine the following record next.
Supply remaining at 1 h, 10 µM value. Item: CNC(=O)[C@H](Cc1cccnc1)NC(=O)[C@H](CCN)NC(=O)[C@@H]1CCC(=O)NCc2ccc(cc2)CC(=O)N[C@@H](CO)C(=O)N[C@H]2CCC(=O)NCC[C@H](NC(=O)[C@H](CCCNC(N)=O)NC(=O)[C@H](Cc3c[nH]c4ccccc34)NC2=O)C(=O)N[C@@H](Cc2ccc(OCCN)cc2)C(=O)N[C@@H](Cc2ccc3ccccc3c2)C(=O)N[C@@](C)(CC(C)C)C(=O)N1 [Compound 26] ([X1]SEW[Cit][Dab][AEF][2Nal][αMeL]E[Dab][3Pal]-NHMe; lactam 3-6, N-10) 89
